SYSTEM NAME: PD-1/PD-L1 (Homo sapiens)
Construct: made in house; host or cells: HEK293T
Sequence (Q9NZQ7 with tags, fused parts or gaps): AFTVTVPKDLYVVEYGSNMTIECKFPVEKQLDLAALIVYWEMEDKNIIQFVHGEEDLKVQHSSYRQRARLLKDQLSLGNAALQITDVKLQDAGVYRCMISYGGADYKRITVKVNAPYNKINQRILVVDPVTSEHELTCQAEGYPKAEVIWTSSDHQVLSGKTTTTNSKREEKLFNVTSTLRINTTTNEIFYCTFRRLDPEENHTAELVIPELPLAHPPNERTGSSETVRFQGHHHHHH
EXPERIMENT NOTES: PD-1/PD-L1 Homogenous Time-Resolved Fluorescence (HTRF) binding assay
RUN CONDITIONS: PD-L1-His 10 nM, PD-1-Ig 20 nM; value given as range class; read-out: Range or IC50
ASSAY METRIC: IC50

COMPOUND | SYSTEM NAME | ASSAY METRIC | ENDPOINT RESULT
Cc1c(COc2cc(OCc3cncc(C#N)c3)c(CNC(CO)CO)cc2Cl)cccc1-c1cccc(C(=O)N2CCOCC2)c1C | PD-1/PD-L1 (Homo sapiens) | IC50 | 10 to 100 nM
Cc1c(COc2cc(OCc3cncc(C#N)c3)c(CNC(C)(CO)CO)cc2Cl)cccc1-c1cccc(CN(C)CCN2CCS(=O)(=O)CC2)c1C | PD-1/PD-L1 (Homo sapiens) | IC50 | 0.21 to 10 nM
COc1cc(OCc2cccc(-c3cccc(OCCCN4CC[C@@H](O)C4)c3C)c2C)c(Cl)cc1CN[C@](C)(CO)C(=O)O | PD-1/PD-L1 (Homo sapiens) | IC50 | 0.21 to 10 nM
Cc1c(COc2cc(OCc3cncc(C#N)c3)c(CN3CCCC[C@H]3C(=O)O)cc2Cl)cccc1-c1cccc(C(=O)N2CCCC2)c1C | PD-1/PD-L1 (Homo sapiens) | IC50 | 100 to 2000 nM
Cc1c(COc2cc(OCc3cncc(S(C)(=O)=O)c3)c(CN3CCCC[C@H]3C(=O)O)cc2Cl)cccc1-c1cccc(OCCCN2CCC(CO)(C(=O)O)C2)c1Cl (single isomer, unassigned) [Example 1062] | PD-1/PD-L1 (Homo sapiens) | IC50 | 0.21 to 10 nM
CC[C@@H](C(=O)O)N(C)Cc1cc(Cl)c(OCc2cccc(-c3cccc(OCCCN4CC[C@@H](O)C4)c3C)c2C)cc1OCc1cncc(C#N)c1 | PD-1/PD-L1 (Homo sapiens) | IC50 | 0.21 to 10 nM
Cc1c(COc2cc(OCc3cncc(C#N)c3)c(CNC(C)(CO)CO)cc2Cl)cccc1-c1cccc(OCCCN2CCC(CO)(C(=O)O)C2)c1Cl (stereo not drawn) | PD-1/PD-L1 (Homo sapiens) | IC50 | 10 to 100 nM
Cc1c(COc2cc(OCc3cc(F)cc(F)c3)c(CN3CCCC[C@H]3C(=O)O)cc2Cl)cccc1-c1cccc(OCCCN2CC[C@@H](O)C2)c1C | PD-1/PD-L1 (Homo sapiens) | IC50 | 0.21 to 10 nM
Cc1c(COc2cc(OCc3cncc(C#N)c3)c(CN3CCCC[C@H]3C(=O)O)cc2Cl)cccc1-c1cccc(OCCCN2CCCCC2C)c1C (stereo partly drawn) | PD-1/PD-L1 (Homo sapiens) | IC50 | 0.21 to 10 nM
Cc1c(COc2cc(OCc3cncc(C#N)c3)c(CN3CCCC[C@H]3C(=O)O)cc2Cl)cccc1-c1cccc(OCCCNCCc2ccccn2)c1C | PD-1/PD-L1 (Homo sapiens) | IC50 | 0.21 to 10 nM
CC(=O)NC1CCN(CCCOc2cccc(-c3cccc(COc4cc(OCc5cncc(C#N)c5)c(CN5CCCC[C@H]5C(=O)O)cc4Cl)c3C)c2C)C1 (stereo partly drawn) | PD-1/PD-L1 (Homo sapiens) | IC50 | 0.21 to 10 nM
C[C@](CO)(NCc1cc(Cl)c(OCc2cccc(-c3cccc(OCCCN4CCC(O)(CO)CC4)c3Cl)c2Cl)cc1OCc1cncc(C#N)c1)C(=O)O | PD-1/PD-L1 (Homo sapiens) | IC50 | 0.21 to 10 nM
